In this section we review reported FACS fluorescence values for a set of binders.
Target: T1, human CLDN6 fused to GFP, expressed on engineered HEK293T cells (HEK293T-CLDN6-mGFP) (human, UniProt P56747 1-220)
T1 construct: It calls residues 1-21 a signal peptide; also called Claudin-6; HEK293T-CLDN6-mGFP Artificial CLDN6+; not shown: mGFP tag
T1 sequence: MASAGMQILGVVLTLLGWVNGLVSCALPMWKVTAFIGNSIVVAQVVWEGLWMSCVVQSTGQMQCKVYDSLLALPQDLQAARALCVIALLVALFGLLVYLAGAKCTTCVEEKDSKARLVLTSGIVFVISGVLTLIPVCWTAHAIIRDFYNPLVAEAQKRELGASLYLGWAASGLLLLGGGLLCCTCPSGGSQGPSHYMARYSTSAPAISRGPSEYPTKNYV
Test: FACS, 0.3 µg Ab, 293T clone with human CLDN6
In your answer, state the number alone without any accompanying words.

| BINDER | FACS fluorescence |
| --- | --- |
| AB3-4 (antibody, V domains shown, also called Humanized AB 3-4) VH: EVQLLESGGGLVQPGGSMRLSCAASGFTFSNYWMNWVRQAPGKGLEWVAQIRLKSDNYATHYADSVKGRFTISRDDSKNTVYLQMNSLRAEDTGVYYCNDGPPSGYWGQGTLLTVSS VL: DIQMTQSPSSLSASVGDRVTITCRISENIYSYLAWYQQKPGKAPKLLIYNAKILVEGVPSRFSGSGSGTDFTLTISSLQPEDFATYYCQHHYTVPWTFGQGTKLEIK | 11600 |
| AB4-6 (antibody, V domains shown, also called Humanized AB 4-6) VH: QVQLVQSGAEVKKPGASVKMSCKASGYTFTSYTMHWIRQAPGQGLEWIGYINPSSTYTHYAQKFQGRATLTADKSTSTAYMELSSLRSEDTAVYYCSRGELGGFAYWGQGTLVTVSS VL: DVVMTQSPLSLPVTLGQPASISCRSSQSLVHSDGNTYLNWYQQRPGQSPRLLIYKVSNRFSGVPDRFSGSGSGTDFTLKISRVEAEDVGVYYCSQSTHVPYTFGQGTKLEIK | 10800 |

Report FACS fluorescence for AB9-4 (antibody, V domains shown, also called Humanized AB 9-4) VH: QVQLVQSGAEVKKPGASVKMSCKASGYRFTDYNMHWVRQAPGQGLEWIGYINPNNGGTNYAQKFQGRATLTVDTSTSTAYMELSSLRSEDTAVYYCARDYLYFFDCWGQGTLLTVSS VL: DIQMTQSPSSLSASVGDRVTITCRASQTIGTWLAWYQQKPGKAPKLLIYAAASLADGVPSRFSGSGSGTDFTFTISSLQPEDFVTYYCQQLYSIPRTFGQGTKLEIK
15300
